system: HUVEC cells; experiment: CCK-8 cell survival: ameliorating proliferative toxicity of VEGF/VEGFR inhibitor (Examples 4-15); format: cell-based; details: Regorafenib 10 μM, agent 100 μM, 24-48 h
RESULT TYPE: Cell Survival Rate (viable cells increased vs VEGF/VEGFR inhibitor group)

{"MOLECULE": "N=c1c[n+](N2CCOCC2)[n-]o1 [3-morpholinosydnonimine]", "RECORDED VALUE": "Increased by 15-20%"}
{"MOLECULE": "O=[N+]([O-])O[C@@H]1CO[C@H]2[C@@H]1OC[C@@H]2O [Isosorbide Mononitrate]", "RECORDED VALUE": "Increased by 20-30%"}
{"MOLECULE": "CCOC(=O)[N-]c1cn(N2CCOCC2)n[o+]1 [Molsidomine]", "RECORDED VALUE": "Increased by 20-30%"}
{"MOLECULE": "O=C(NCCO[N+](=O)[O-])c1cccnc1 [Nicorandil]", "RECORDED VALUE": "Increased by 20-30%"}
{"MOLECULE": "NCCN(CCN)/[N+]([O-])=N/O", "RECORDED VALUE": "Increased by 15-20%"}

Next, consider the following molecule.
GET /values?readout=Cell Survival Rate (viable cells increased vs VEGF/VEGFR inhibitor group)&item= CC(C)CCON=O [Isoamyl Nitrite]
Increased by 15-20%
